# Tested on: SNB-19
# Assay notes: NCI-60 one-dose SRB screen (CNS Cancer)
# Type: cell-based
# Assay setup: Homo sapiens, single dose 10 µM, 48 h, read-out: Growth inhibition percent (GI %)
In this section we review reported inhibition at 10 µM values for a set of molecules.
Form entry: value (%) — number only.

Example entries begin here.
{"Structure": "NS(=O)(=O)c1ccc(NC(=O)COC(=O)c2cn(-c3ccc(S(N)(=O)=O)cc3)nc2-c2ccc(Br)cc2)cc1", "inhibition at 10 µM (%)": 24.1}
{"Structure": "Cc1ccc(-c2nn(-c3ccc(S(N)(=O)=O)cc3)cc2-c2nnc(N)s2)cc1", "inhibition at 10 µM (%)": 7.72}
{"Structure": "CCOC(=O)c1ccc(NC(=O)COC(=O)c2cn(-c3ccc(S(N)(=O)=O)cc3)nc2-c2ccc(S(C)(=O)=O)cc2)cc1", "inhibition at 10 µM (%)": 8.29}
{"Structure": "CCOC(=O)c1ccc(NC(=O)COC(=O)c2cn(-c3ccc(S(N)(=O)=O)cc3)nc2-c2ccccc2)cc1", "inhibition at 10 µM (%)": 60.9}
{"Structure": "CCOC(=O)c1ccc(NC(=O)COC(=O)c2cn(-c3ccc(S(N)(=O)=O)cc3)nc2-c2ccc(Br)cc2)cc1", "inhibition at 10 µM (%)": 57.9}

Request: Please give measured inhibition at 10 µM of the following entry: CCOC(=O)c1ccc(NC(=O)COC(=O)c2cn(-c3ccc(S(N)(=O)=O)cc3)nc2-c2ccc(OC)cc2)cc1
Result: 30.7

Request: Please give measured inhibition at 10 µM of the following entry: NS(=O)(=O)c1ccc(-n2cc(C(=O)OCC(=O)Nc3nnc(S(N)(=O)=O)s3)c(-c3ccccc3)n2)cc1
Result: 6.91

Request: Please give measured inhibition at 10 µM of the following entry: Cc1ccc(-c2nn(-c3ccc(S(N)(=O)=O)cc3)cc2C(=O)OCC(=O)Nc2nnc(S(N)(=O)=O)s2)cc1
Result: 5.72

---

In this section we review reported inhibition at 10 µM values for a set of compounds.
# System: SK-MEL-5
# Assay notes: NCI-60 one-dose SRB screen (Melanoma)
# Format: cell-based
# Assay setup: Homo sapiens, single dose 10 µM, 48 h, read-out: Growth inhibition percent (GI %)

Example entries begin here.
{"Compound": "CS(=O)(=O)c1ccc(-c2nn(-c3ccc(S(N)(=O)=O)cc3)cc2C(=O)OCC(=O)Nc2ccc(S(N)(=O)=O)cc2)cc1 [Compound 4e]", "inhibition at 10 µM": "< 5%"}
{"Compound": "CCOC(=O)c1ccc(NC(=O)COC(=O)c2cn(-c3ccc(S(N)(=O)=O)cc3)nc2-c2ccc(S(C)(=O)=O)cc2)cc1 [Compound 5e]", "inhibition at 10 µM": "< 5%"}
{"Compound": "COc1ccc(-c2nn(-c3ccc(S(N)(=O)=O)cc3)cc2C(=O)OCC(=O)Nc2nnc(S(N)(=O)=O)s2)cc1 [Compound 6c]", "inhibition at 10 µM": "< 5%"}

Request: With SK-MEL-5 as the test system, provide measured inhibition at 10 µM for this compound: COc1ccc(-c2nn(-c3ccc(S(N)(=O)=O)cc3)cc2C(=O)NNC(N)=S)cc1 [Compound 9c]
Result: < 5%

Request: With SK-MEL-5 as the test system, provide measured inhibition at 10 µM for this compound: Cc1ccc(-c2nn(-c3ccc(S(N)(=O)=O)cc3)cc2C(=O)NNC(N)=S)cc1 [Compound 9b]
Result: < 5%

---

# System: M14
# Assay notes: NCI-60 one-dose SRB screen (Melanoma)
# Format: cell-based
# Assay setup: Homo sapiens, single dose 10 µM, 48 h, read-out: Growth inhibition percent (GI %)
In this section we review reported inhibition at 10 µM values for a set of compounds.
Form entry: value (%) — number only.

{"Compound": "NS(=O)(=O)c1ccc(NC(=O)COC(=O)c2cn(-c3ccc(S(N)(=O)=O)cc3)nc2-c2ccccc2)cc1 [Compound 4a]", "inhibition at 10 µM / %": 23.2}

Request: Please give measured inhibition at 10 µM of the following entry: NS(=O)(=O)c1ccc(NC(=O)COC(=O)c2cn(-c3ccc(S(N)(=O)=O)cc3)nc2-c2ccc(Br)cc2)cc1 [Compound 4d]
Result: 79.6

Request: Please give measured inhibition at 10 µM of the following entry: COc1ccc(-c2nn(-c3ccc(S(N)(=O)=O)cc3)cc2C(=O)OCC(=O)Nc2ccc(S(N)(=O)=O)cc2)cc1 [Compound 4c]
Result: 43.3

Request: Please give measured inhibition at 10 µM of the following entry: CCOC(=O)c1ccc(NC(=O)COC(=O)c2cn(-c3ccc(S(N)(=O)=O)cc3)nc2-c2ccc(C)cc2)cc1 [Compound 5b]
Result: 56.9

Request: Please give measured inhibition at 10 µM of the following entry: CCOC(=O)c1ccc(NC(=O)COC(=O)c2cn(-c3ccc(S(N)(=O)=O)cc3)nc2-c2ccc(Br)cc2)cc1 [Compound 5d]
Result: 73.7

---

# Test system: SW-620
# Assay notes: NCI-60 one-dose SRB screen (Colon Cancer)
# Format: cell-based
# Assay setup: Homo sapiens, single dose 10 µM, 48 h, read-out: Growth inhibition percent (GI %)
In this section we review reported inhibition at 10 µM values for a set of molecules.

Example entries begin here.
{"Structure": "CCOC(=O)c1ccc(NC(=O)COC(=O)c2cn(-c3ccc(S(N)(=O)=O)cc3)nc2-c2ccccc2)cc1", "System": "SW-620", "Quantity kind": "inhibition at 10 µM", "Observed": "47.1%"}
{"Structure": "NS(=O)(=O)c1ccc(NC(=O)COC(=O)c2cn(-c3ccc(S(N)(=O)=O)cc3)nc2-c2ccccc2)cc1", "System": "SW-620", "Quantity kind": "inhibition at 10 µM", "Observed": "< 5%"}
{"Structure": "COc1ccc(-c2nn(-c3ccc(S(N)(=O)=O)cc3)cc2C(=O)OCC(=O)Nc2ccc(S(N)(=O)=O)cc2)cc1", "System": "SW-620", "Quantity kind": "inhibition at 10 µM", "Observed": "< 5%"}
{"Structure": "CCOC(=O)c1ccc(NC(=O)COC(=O)c2cn(-c3ccc(S(N)(=O)=O)cc3)nc2-c2ccc(S(C)(=O)=O)cc2)cc1", "System": "SW-620", "Quantity kind": "inhibition at 10 µM", "Observed": "< 5%"}
{"Structure": "CS(=O)(=O)c1ccc(-c2nn(-c3ccc(S(N)(=O)=O)cc3)cc2C(=O)OCC(=O)Nc2ccc(S(N)(=O)=O)cc2)cc1", "System": "SW-620", "Quantity kind": "inhibition at 10 µM", "Observed": "< 5%"}
{"Structure": "NC(=S)NNC(=O)c1cn(-c2ccc(S(N)(=O)=O)cc2)nc1-c1ccc(Br)cc1", "System": "SW-620", "Quantity kind": "inhibition at 10 µM", "Observed": "< 5%"}

Now consider the entry below.
Request: Please give measured inhibition at 10 µM of the following entry: Cc1ccc(-c2nn(-c3ccc(S(N)(=O)=O)cc3)cc2C(=O)NNC(N)=S)cc1
Result: < 5%

---

# System: MDA-MB-468
# Assay notes: NCI-60 one-dose SRB screen (Breast Cancer)
# Type: cell-based
# Assay setup: Homo sapiens, single dose 10 µM, 48 h, read-out: Growth inhibition percent (GI %)
Label false (0) if inhibition at 10 µM falls below 50%; label true (1) in every other case.

{"Structure": "CS(=O)(=O)c1ccc(-c2nn(-c3ccc(S(N)(=O)=O)cc3)cc2C(=O)OCC(=O)Nc2ccc(S(N)(=O)=O)cc2)cc1", "Label value": "false (0)"}
{"Structure": "COc1ccc(-c2nn(-c3ccc(S(N)(=O)=O)cc3)cc2C(=O)NNC(N)=S)cc1", "Label value": "false (0)"}

Request: In plain terms: is recorded inhibition at 10 µM at least 50% for Cc1ccc(-c2nn(-c3ccc(S(N)(=O)=O)cc3)cc2-c2nnc(N)s2)cc1 ?
Result: false (0)

Request: In plain terms: is recorded inhibition at 10 µM at least 50% for Cc1ccc(-c2nn(-c3ccc(S(N)(=O)=O)cc3)cc2C(=O)NNC(N)=S)cc1 ?
Result: false (0)

Request: In plain terms: is recorded inhibition at 10 µM at least 50% for NC(=S)NNC(=O)c1cn(-c2ccc(S(N)(=O)=O)cc2)nc1-c1ccccc1 ?
Result: false (0)

Request: In plain terms: is recorded inhibition at 10 µM at least 50% for Cc1ccc(-c2nn(-c3ccc(S(N)(=O)=O)cc3)cc2C(=O)OCC(=O)Nc2ccc(S(N)(=O)=O)cc2)cc1 ?
Result: false (0)

Request: In plain terms: is recorded inhibition at 10 µM at least 50% for CS(=O)(=O)c1ccc(-c2nn(-c3ccc(S(N)(=O)=O)cc3)cc2C(=O)NNC(N)=S)cc1 ?
Result: false (0)

Request: In plain terms: is recorded inhibition at 10 µM at least 50% for CCOC(=O)c1ccc(NC(=O)COC(=O)c2cn(-c3ccc(S(N)(=O)=O)cc3)nc2-c2ccc(Br)cc2)cc1 ?
Result: true (1)

Request: In plain terms: is recorded inhibition at 10 µM at least 50% for CCOC(=O)c1ccc(NC(=O)COC(=O)c2cn(-c3ccc(S(N)(=O)=O)cc3)nc2-c2ccc(C)cc2)cc1 ?
Result: true (1)

Request: In plain terms: is recorded inhibition at 10 µM at least 50% for CCOC(=O)c1ccc(NC(=O)COC(=O)c2cn(-c3ccc(S(N)(=O)=O)cc3)nc2-c2ccccc2)cc1 ?
Result: true (1)

Request: In plain terms: is recorded inhibition at 10 µM at least 50% for NS(=O)(=O)c1ccc(NC(=O)COC(=O)c2cn(-c3ccc(S(N)(=O)=O)cc3)nc2-c2ccc(Br)cc2)cc1 ?
Result: true (1)
